System: NCI-H460
Assay: NCI tumour cell line growth inhibition, 48 h
Active and inactive are the calls of the source. Cut-off read from the data, not from the text of the source: active = GI50 up to about 1.1 µM and inactive = higher.
Quick reference for GI50 among some compounds

Solved cases (3 shown):
Brc1ccc(-c2nc(-c3ccc(Br)cc3)n(-c3ccccc3)n2)cc1 ... > 100 µM (inactive)
COc1ccc(-n2c3c(c4cc(O)ccc42)Cc2ccccc2C3=O)cc1 ... 16.1 µM (inactive)
[O-]/[N+](=N\c1ccccc1CO)c1ccccc1CO ... > 100 µM (inactive)

Fill in the recorded GI50 for this compound, with NCI-H460 as test system: `NC1=Nc2ccccc2Sc2cccc(F)c21`
> 100 µM (inactive)

Lab request: please report GI50 under test system NCI-H460 for C=C(C)C1CC2=C(O1)C(=O)c1cccc(O)c1C2=O (configuration not stated)
1.91 µM (inactive)

Provide the documented GI50 with NCI-H460 as the system for `O=[N+]([O-])c1ccc(N/N=C/c2ccc(OCCCCCCCCCCCO)cc2)c([N+](=O)[O-])c1`
2.5 µM (inactive)

So what GI50 did `CN(C)c1ccc(/C(Br)=C2\OC(=O)c3ccccc32)cc1` get with NCI-H460?
> 100 µM (inactive)

Hello, I am looking for reported GI50 with NCI-H460 for Cc1ccc(-c2cc(-c3ccco3)c(C#N)c(=O)n2C2OC(CO)C(O)C(O)C2O)cc1 (configuration not stated) . Could you help?
37.1 µM (inactive)

---

System: HOP-18
Assay: NCI tumour cell line growth inhibition, 48 h
Activity calls are given as the source filed them. Rule as the data show it: active = GI50 up to about 1.1 µM and inactive = higher.
The reply should be one of these categories: TRUE (active), FALSE (inactive)

Query: recorded result category for COC1=C(C)C(=O)C2=C(C1=O)C1C3CC4=C(C(=O)C(OC)=C(C)C4=O)C(CNC(=O)C(C)O)N3C(C#N)C(C2)N1C (stereo unspecified) in this test
TRUE

Name the outcome recorded for `Cn1c2c(c3ccccc31)CCN(CCN1CCN(c3ccccc3)CC1)C2=O` in the assay.
FALSE

Tell me the assay call for `CCN(CC)CCNC(=O)c1ccc(C)c(OCc2ccccc2)c1[N+](=O)[O-]` please.
FALSE

What outcome does the record of this test show for `CC[n+]1c(/C=C/c2ccc(N(CCCl)CCCl)cc2)ccc2cc(Br)ccc21` ?
FALSE

I'd appreciate the recorded outcome for `Nc1nc(NCCO)c(N=O)c(=O)[nH]1` from this test.
FALSE

Could you please tell me the result logged for `CC(/C=C/C(=O)c1sc(C(N)=S)nc1C)=C\c1ccccc1` in this assay?
FALSE

---

Test system: UACC-257
Experiment: NCI tumour cell line growth inhibition, 48 h
Calls of active or inactive are those of the source. Rule as the data show it: active = GI50 up to about 1.1 µM and inactive = higher.
Below is a list of entries, each paired with its recorded GI50 value.

CC(CO)(CO)N1C(=O)C2C3c4ccccc4C(c4ccccc43)C2C1=O (stereo not given) ... > 100 µM (inactive)

Find the recorded GI50 belonging to COc1ccc(OC2OC(COC(c3ccccc3)(c3ccc(OC)cc3)c3ccc(OC)cc3)C(O)C(O)C2O)cc1 (stereo not given) and report it.
6.64 µM (inactive)

Looking for the measured GI50 of `CN(C)CCn1c(=O)nc2c3c(c([N+](=O)[O-])ccc31)Nc1ccc(O)cc1-2` , can you help?
8.28 µM (inactive)

GET /values?readout=GI50&item= `CC(C)c1ccc2c(c1)/C(=C1/Nc3ccccc3C1=O)C(=O)N2`
61.8 µM (inactive)

Look up GI50: COc1cc2oc(=O)ccc2cc1C1OC(=O)C2OC21C (stereo not given)
> 100 µM (inactive)

If you can, please state the reported GI50 value of COc1ccc2c(c1)C(O)(C(F)(F)F)c1cc(C(=O)C(F)(F)F)c3ccccc3c1N2 (stereo not given) .
13.5 µM (inactive)

Entry under review: `CC(C)(C)OC(=O)N[C@H]1CC(=O)c2ccccc2N(CC(=O)O)C1=O` . Reported GI50?
> 100 µM (inactive)

Look at this compound and give its reported GI50. `CCOC(=O)Cc1nc2sc(S(N)(=O)=O)nn2c1Br`
29.9 µM (inactive)

Record request: GI50 value, item `NS(=O)(=O)c1ccc(NC(=O)CC(=O)Nc2ccc(S(N)(=O)=O)cc2)cc1`
> 100 µM (inactive)

Reported GI50, compound `C=C(C)CCN(C(=O)OC(C)(C)C)c1cc(C(C)C)co1` : ____
34 µM (inactive)

---

Tested on: A549
Assay: NCI tumour cell line growth inhibition, 48 h
Calls of active or inactive are those of the source. Cut-off read from the data, not from the text of the source: active = GI50 up to about 1.1 µM and inactive = higher.
Bench note: report the call from active, inactive

Consider the worked cases shown below.
Nc1cccnc1NCC1(CO)CCCC1 ... inactive
CN(C)CCNc1ccc2c(=O)n(CCN(C)C)c(=O)n3c4ccc(O)cc4c(=O)c1c23 ... active
CC(=O)Nc1ccc(C2SCc3nc4ccccc4n32)cc1 (stereo not given) ... inactive
O=c1[nH]c2cc3cccnc3c(Cl)c2nc1CBr ... inactive
CC(NNC(=O)c1cc[n+]([BH2-]C#N)cc1)c1cccc(C(F)(F)F)c1 (stereo not given) ... inactive
Cc1ccc(S(=O)(=O)NCc2cccc([N+](=O)[O-])c2)cc1 ... inactive
Cn1cc(NC(=O)c2cc(NC(=O)Nc3cc(C(=O)Nc4cc(C(=O)NCCC(=N)N)n(C)c4)n(C)c3)cn2C)cc1C(=O)NCCC(=N)N ... inactive
O=C1CSc2ccncc2N1 ... inactive

Called result for `COc1cc2c(cc1OC)C(=O)N(c1ccc(OCCN3CCCC3)cc1)C2`
inactive

Could you check what this test reported for CC(CO)(CO)N1C(=O)C2C3c4ccccc4C(c4ccccc43)C2C1=O (stereo not given) ?
inactive

Assay outcome for `Clc1cc2c(c(CSC3=NCN(CC4CC4)CN3)c1)OCOC2` : what was it?
inactive

Assay result, entry CC(CCCC1SCC2NC(=O)NC21)C(=O)O (stereo not given) — outcome?
inactive

Which outcome did this test record for the compound `Clc1cc(-c2ccccc2)nc2ccccc12` ?
inactive

For this compound, state the assay outcome: `C=CCN(c1cc(OCc2ccccc2)c(NC(C)=O)cc1[N+](=O)[O-])S(C)(=O)=O`
inactive

Entry O=c1cc(CNC2CC3CCC2C3)[nH]c(=O)[nH]1 (stereo not given) : call = ?
inactive

---

System: IGROV-1
Assay: NCI tumour cell line growth inhibition, 48 h
Active and inactive are the calls of the source. Cut-off read from the data, not from the text of the source: active = GI50 up to about 1.1 µM and inactive = higher.
Some compounds, each annotated with its measured GI50.

Some compounds with recorded GI50:
CN/N=C(\C)C(CN(C)C)C(c1ccccc1)c1c(O)c2ccccc2oc1=O (stereo not drawn) ... > 100 µM (inactive)
COc1ccc(S(=O)(=O)Nc2ccc(-c3csc(N4C(=O)/C(=C/C=C\c5ccccc5)N=C4c4ccccc4)n3)cc2)cc1Cl ... 19.9 µM (inactive)

Query: GI50; subject: COC1=CC23CCCN2CCc2cc4c(cc2C3C1O)OCO4 (stereo not drawn)
28.8 µM (inactive)

Fill in: GI50 of O=c1cc(CNC2CC3CCC2C3)[nH]c(=O)[nH]1 (stereo not drawn) is ___
> 100 µM (inactive)

Look up GI50: `O=C1N(CN2CCOCC2)CN(CN2CCOCC2)C(=O)N1Cc1ccc(-c2ccc(CN3C(=O)N(CN4CCOCC4)CN(CN4CCOCC4)C3=O)cc2)cc1`
11.6 µM (inactive)

Which GI50 reading was recorded for the compound Cc1ccc([N+](=O)[O-])cc1S(=O)(=O)Nc1ccc(C2=NN(c3ccc([N+](=O)[O-])cc3[N+](=O)[O-])C(c3ccccc3O)C2)cc1 (stereo not drawn) ?
26.4 µM (inactive)

I am curious: what GI50 value has been reported for `COc1ccc2[nH]cc(CCNC(=O)[C@H](Cc3ccc(O)cc3)NC(=O)[C@@H](NCC(F)(F)F)C(C)C)c2c1` ?
97.7 µM (inactive)

Could you tell me which GI50 is on file for `CSc1cnc2ccccc2c1Sc1cn(C)c2ccccc2c1=O` ?
18.7 µM (inactive)

---

System: UO-31
Test: NCI tumour cell line growth inhibition, 48 h
Structures can show the parent of a compound that is named as a salt. Activity calls are given as the source filed them. Rule as the data show it: active = GI50 up to about 1.1 µM and inactive = higher.
test readout: GI50

Worked cases, GI50 given:
Cc1nc2c(=O)[nH]ncc2[nH]1 ... > 100 µM (inactive)
CSc1cnc2ccccc2c1Sc1cn(C)c2ccccc2c1=O ... 25.5 µM (inactive)
O=C1CCC(=O)C1=NNc1cc(Cl)cc(Cl)c1 ... > 100 µM (inactive)
COC(=O)C1=CO[C@@H](C)[C@@H]2Cn3ccc4c5ccccc5nc-4c3C[C@H]12 [ALSTONINE HYDROCHLORIDE] ... > 100 µM (inactive)
C[C@@]12CCC3C1C=C1C(=O)c4cc(O)ccc4C(=O)[C@]1(O2)[C@@]3(C)C=O ... 4.9 µM (inactive)

What value of measured GI50 is listed for CC[C@]12CCCN3CCc4c(n(c5ccccc45)C(=O)C1)[C@@H]32 [VINBURNINE] ?
4.75 µM (inactive)

Entry under review: `CCCc1c(Cl)nc(Cl)nc1Cl` . Reported GI50?
25.4 µM (inactive)

Requested read-out: GI50. Entry: COC1CC(OC)C(O)C(CO)O1 (stereo not drawn)
> 100 µM (inactive)
